# PROTOCOL_SUMMARY: yeast display, Sf9 membrane polyspecificity reagent, FACS + sequencing; frameworks hold sequencing errors
ASSAY_READOUT: polyreactivity (PSR sort gate)

QVQLVESGGGLVQAGGSLRLSCAASGIIFGFNAMGWYRQAPGKETELVAAINGDDSTYYADSVKGRFTISRDNAKNTVYLQMNSLKPEDTAVYYCAARYYRYLTFTGELLVYYWGQGTQVTVSS	low polyreactivity
QVQLVESGGGLVQAGGSLCLSCAASGIFVYNAIGWYRQAPGKEREFVAAINKSGASTFYADSVKGRFTISRDNAKNTVYLQMNRLKPEDTAVYYCRERDYWGQGTQVTVSS	low polyreactivity

----------
# PROTOCOL_SUMMARY: yeast display, Sf9 membrane polyspecificity reagent, FACS + sequencing; frameworks hold sequencing errors
ASSAY_READOUT: polyreactivity (PSR sort gate)

QVQLVESGGGLVQAGGSLRLSCAASGRIFWPNAMGWYRQAPGKERELVAAISYSGGSTYYADSVKGRFTISRDNAKNTVYLQMNSLKPEDTAVYYCAATRSVRISGDGYLGYDYWGQGTQVTVSS	high polyreactivity
QVHLVESGGGLVQAGGSLRLSCAASGSTFRRNAMGWYRQAPGKERELVASITSGGSTYYADSVKGRFTITRDNAKNTVYLQMNSLKPEDTGVYYCAVVWRGGYRWPYEYWGQGTQVTVSS	low polyreactivity
QVHLVESGGGLVQAGGSLRLSCAASGFTIDYYAMAWYRQAPGKERELDAAISRAGSTNYADSVKGRFTISRDNAKNTVYLQMNSLKPEDTAVYYCNKGYHSWSRLSQFGWSYDYWGQGTQVTVSS	high polyreactivity
QVQLVESGGGLVNAGGSLRLSCAASGITLVVYGMGWYRQAPGKETELVAAMTSGGRTYYADSVTGRFTISRDNAKNTVYLQMNSLKPEDTAVYYCAADRYFRQYGRYYYWGQGTQVTVSS	high polyreactivity

Exercise: For the sequence QVQLVESGGGLVQAGGSLRLSCAASGSTFGWNAMGWYRQAPGKERELVAAISSSGGITYYADSVKGRFTISRDNAKNTVYLQMNSLKPEDSAVYYCAAERDDDWVNYWGQGTQVTVSS , what polyreactivity (PSR sort gate) is on record?
Key: low polyreactivity

----------
# PROTOCOL_SUMMARY: yeast display, Sf9 membrane polyspecificity reagent, FACS + sequencing; frameworks hold sequencing errors
ASSAY_READOUT: polyreactivity (PSR sort gate)

QVQLVESGGGLVQAGGSLRLSCAASGRTFDRNAMGWYRQAPGKEREVVAAISSSSGSTYYADSVKGRFTISRDNAKNTVYLQMNSLKPEDTAVYYCATVRWYYSRPRPTTAYGYWGQGTQGTVSS	high polyreactivity
QVQLVESGGGLVQAGGSLRLSCAASGITFDGYAMGWYRQAPGKESELVAGISWSGARSYYADSVKGRFTISRDNAKYTVYLHMNSLKPEDTAVYYCNKVSLRNHGGYDYWGQGTQVTVSS	high polyreactivity
QVQLVESGGGLVQAGGSLRLSCAASGSTFYVYAMGWYRQAPGKEREFVAAISFSSGSTYYADSVKGRFTISRDNAKNTVYLQMNMMNQEDTAVYDCAARYRYPRYIGYGYGGAFVYWGQGTQVTVSS	high polyreactivity
QVQLVESGGGLVQAGGSLRLSCAASGFIFYSNAMGWYRQAPGKERELVAAISRRGGSTYYADSVKGRFTISRDNAKNTVYLQMNSLKPEDTAVYYCAATFKSGMDYWGQGTQVTVSS	high polyreactivity
